- test-target: mPGES-1 Mouse enzyme (Mus musculus)
- Construct: made in house; host or cells: FreeStyle 293-F cells, crude microsomal preparation
- Sequence (Q9JM51 whole entry): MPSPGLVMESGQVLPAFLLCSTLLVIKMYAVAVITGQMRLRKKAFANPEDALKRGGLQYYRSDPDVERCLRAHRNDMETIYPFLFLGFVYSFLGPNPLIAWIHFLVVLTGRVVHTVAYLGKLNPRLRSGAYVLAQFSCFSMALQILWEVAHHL
- test-name: mPGES-1 enzyme activity assay (PGE2 enzyme immunoassay), mouse enzyme
- Type: biochemical
- particulars: compound at a concentration of 10 μM; read-out: % inhibition of the compound against mPGES-1, Mouse enzyme
Please enter 1 where inhibition at 10 µM is greater than or equal to 50%, and 0 where it is lower.

These recorded examples may help you get a feel for the data.
O=C(O)CN1C(=O)S/C(=C2\C(=O)N(CCc3ccccc3)c3ccccc32)C1=O	1
O=C1NC(=O)C(=Cc2cc(Br)ccc2OCCCCC2CCCCC2)C(=O)N1	0
O=C1NC(=O)C(=Cc2ccc(OCCCOc3ccc(-c4ccccc4)cc3)c(Cl)c2)C(=O)N1	0
CCCCCCCCCCOc1ccc(-c2nn(-c3ccccc3)cc2/C=C(/C#N)C(=O)O)cc1	0
O=C(O)CN1C(=O)S/C(=C2\C(=O)N(CCC3CCCCC3)c3ccccc32)C1=O	0
CCCCOc1ccc(-c2nn(-c3ccc(Cl)cc3)cc2/C=C(/C#N)C(=O)O)cc1	0
O=C(O)CN1C(=O)/C(=C2\SC(=S)NC2=O)c2ccccc21	0
CCCCCCCCCCOc1ccc(-c2nn(-c3ccc(Cl)cc3)cc2C=C2C(=O)NC(=O)NC2=O)cc1	0

// inclusive: inhibition at 10 µM at least 50%? input: CCCCCCCN1C(=O)/C(=C2\SC(=O)N(CC(=O)O)C2=O)c2ccccc21
1

API: above_or_equal(metric=inhibition at 10 µM, cutoff=50%) for item O=C(O)CN1C(=O)S/C(=C2\C(=O)N(Cc3ccc(Cl)cc3)c3ccccc32)C1=O
0

----------
For each record, write down the corresponding pIC50.
- test-target: mPGES-1 (Homo sapiens)
- test-name: mPGES-1 enzyme activity assay (PGE2 enzyme immunoassay), human enzyme
- Type: biochemical
- Design: made in house; host or cells: FreeStyle 293-F cells, crude microsomal preparation
- particulars: recombinant microsomal enzyme; means ± SD, triplicate; read-out: IC50 against mPGES-1, Human enzyme
Answers are plain numbers, as −log10 of the molar value.

Consider the worked cases shown below.
CCCCCCOc1c(Br)cc(/C=C(\C#N)C(=O)OCC)cc1OC	6.00
CCCCCCCCOc1ccc(/C=C(\C#N)C(=O)OCC)cc1[N+](=O)[O-]	5.32
CCOc1ccc(-c2nn(-c3ccc(Cl)cc3)cc2/C=C2\SC(=S)NC2=O)cc1	5.98

Take each entry in turn and give its pIC50.
1. CCCCCCOc1ccc(/C=C(\C#N)C(=O)O)cc1OC
2. CCCCCCCCCCOc1ccc(/C=C(\C#N)C(=O)O)cc1OC
3. CCCCCCN1C(=O)/C(=C2\SC(=O)N(CC(=O)O)C2=O)c2ccccc21
4. COc1cc(C=C(C#N)C#N)ccc1OCC1CCCCC1
5. CCCCCCCN1C(=O)/C(=C2\SC(=O)N(CC(=O)O)C2=O)c2ccccc21
6. O=C1NC(=O)C(=Cc2ccc(OCCCCC3CCCCC3)cc2)C(=O)N1

[6.62, 7.29, 5.97, 5.84, 6.49, 6.21]

Dear reader, for each entry below, please note its pIC50.
1. O=C(O)CN1C(=O)/C(=C2\SC(=O)N(CCCCC3CCCCC3)C2=O)c2ccccc21
2. O=C(O)CN1C(=O)S/C(=C2\C(=O)N(CCCc3ccccc3)c3ccccc32)C1=O

1: 5.59; 2: 5.62

For the 8 compounds below, give their pIC50 values.
1. O=C(O)CN1C(=O)S/C(=C2\C(=O)N(CCCCC3CCCCC3)c3ccccc32)C1=O
2. CCCCCCOc1ccc(/C=C(\C#N)C(=O)OCC)cc1OC
3. CCCCCCCCOc1ccc(C=C(C#N)C#N)cc1[N+](=O)[O-]
4. O=C(O)CN1C(=O)S/C(=C2\C(=O)N(CC3CCCCC3)c3ccc(-c4ccc5ccccc5c4)cc32)C1=O
5. CCCCCCCOc1ccc(/C=C(\C#N)C(=O)OCC)cc1
6. CCCCCCCCCOc1ccc(/C=C(\C#N)C(=O)O)cc1OC
7. O=C(O)CN1C(=O)S/C(=C2\C(=O)N(CCCOc3ccccc3)c3ccccc32)C1=O
8. CCCCCOc1ccc(C=C(C#N)C#N)cc1OC

1. 6.30
2. 5.84
3. 7.05
4. 6.27
5. 5.45
6. 6.45
7. 6.09
8. 6.36

----------
- test-target: mPGES-1 (Homo sapiens)
- test-name: mPGES-1 enzyme activity assay (PGE2 enzyme immunoassay), human enzyme
- Assay type: biochemical
- Design: made in house; host or cells: FreeStyle 293-F cells, crude microsomal preparation
- particulars: recombinant microsomal enzyme; means ± SD, triplicate; read-out: IC50 against mPGES-1, Human enzyme
experimental-endpoint: pIC50
Numbers only, as −log10 of the molar value.

Solved cases (8 shown):
CCCCCCCOc1ccc(C=C(C#N)C#N)cc1[N+](=O)[O-]	6.87
CCCCCCOc1ccc(C=C(C#N)C#N)cc1[N+](=O)[O-]	6.55
CCCCOc1ccc(-c2nn(-c3ccc(Cl)cc3)cc2C=C2C(=O)NC(=O)NC2=O)cc1	6.77
CCCCCCOc1ccc(/C=C(\C#N)C(=O)OCC)cc1	5.28
CCCCCCCOc1ccc(C=C(C#N)C#N)cc1	6.87
O=C1NC(=O)C(=Cc2ccc(OCCCCC3CCCCC3)c(Cl)c2)C(=O)N1	7.48
CCCCCCCOc1ccc(/C=C(\C#N)C(=O)O)cc1OC	6.27
N#C/C(=C/c1cn(-c2ccccc2)nc1-c1ccc(OCc2ccccc2)cc1)C(=O)O	6.09

Please report the measured pIC50 for CCCCCCOc1ccc(C=C(C#N)C#N)cc1OC tested on mPGES-1 (Homo sapiens).
6.53

----------
- test-target: mPGES-1 (Homo sapiens, UniProt O14684)
- Sequence (O14684 1-152): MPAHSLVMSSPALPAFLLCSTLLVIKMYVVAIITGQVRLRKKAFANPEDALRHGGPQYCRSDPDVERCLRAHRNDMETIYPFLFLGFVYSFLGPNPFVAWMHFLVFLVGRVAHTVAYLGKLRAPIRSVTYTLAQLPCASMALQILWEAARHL
- test-name: mPGES-1 enzyme activity assay (PGE2 enzyme immunoassay), human enzyme
- Format: biochemical
- Design: made in house; host or cells: FreeStyle 293-F cells, crude microsomal preparation
- particulars: IC50 against mPGES-1, Human enzyme, recombinant microsomal enzyme; means ± SD, triplicate
experimental-endpoint: IC50 (nM)
Answers are plain numbers, in nM.

Cc1cc(C=C2C(=O)NC(=O)NC2=O)ccc1OCCCCC1CCCCC1 [Compound I-04]	82
CCCCCCCCOc1ccc(-c2nn(-c3ccccc3)cc2C=C2C(=O)NC(=O)NC2=O)cc1 [VI-05]	323
COc1ccc(C=C2C(=O)NC(=O)NC2=O)cc1OCCCCC1CCCCC1 [Compound I-12]	152

Go through the items and report each one's IC50.
1. CN1C(=O)C(=Cc2ccc(OCCCC3CCCCC3)c(Br)c2)C(=O)N(C)C1=O [Compound I-28]
2. CN1C(=O)C(=Cc2ccc(OCCCCC3CCCCC3)c(Br)c2)C(=O)N(C)C1=O [Compound I-19]

1: 127; 2: 427

----------
- test-target: mPGES-1 (Homo sapiens)
- Sequence (O14684 1-152): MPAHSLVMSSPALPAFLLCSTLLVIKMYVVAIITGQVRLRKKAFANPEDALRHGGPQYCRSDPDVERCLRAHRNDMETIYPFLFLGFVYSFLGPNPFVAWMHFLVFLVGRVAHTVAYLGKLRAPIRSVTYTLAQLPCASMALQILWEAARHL
- test-name: mPGES-1 enzyme activity assay (PGE2 enzyme immunoassay), human enzyme
- Assay type: biochemical
- Set-up: made in house; host or cells: FreeStyle 293-F cells, crude microsomal preparation
- particulars: recombinant microsomal enzyme; means ± SD, triplicate; read-out: IC50 against mPGES-1, Human enzyme
experimental-endpoint: IC50
Could you write the number and then its unit?

CCCCCCCCOc1ccc(-c2nn(-c3ccccc3)cc2/C=C(/C#N)C(=O)O)cc1	0.209 µM
CCCCCCCCCN1C(=O)/C(=C2\SC(=O)N(CC(=O)O)C2=O)c2ccccc21	0.199 µM
CCCCCCCOc1ccc(/C=C(\C#N)C(N)=O)cc1	0.376 µM
O=C(O)CN1C(=O)S/C(=C2\C(=O)Nc3ccc(-c4ccccc4)cc32)C1=O	8.02 µM
CCCCCCCOc1c(Br)cc(/C=C(\C#N)C(=O)OCC)cc1OC	1.01 µM
CCOc1ccc(-c2nn(-c3ccc(Cl)cc3)cc2/C=C2\SC(=O)NC2=O)cc1	1.59 µM

Return reported IC50 values for all items listed beneath this line.
1. O=C(O)CN1C(=O)S/C(=C2\C(=O)N(Cc3ccc(Cl)cc3)c3ccc(-c4ccccc4)cc32)C1=O
2. O=C(O)CN1C(=O)S/C(=C2\C(=O)N(CC3CCCCC3)c3ccc(-c4ccc(-c5ccccc5)cc4)cc32)C1=O
3. CCCCCCOc1ccc(-c2nn(-c3ccc(Cl)cc3)cc2/C=C2\SC(=O)N(CC(=O)O)C2=O)cc1

1: 0.054 µM; 2: 0.154 µM; 3: 0.036 µM

Reference for the values: patent US12030877B2
